Hello, the source for this data is PubChem BioAssay (NCI), in case you need it.

System: SF-539 CNS
Assay: NCI-60 one-dose screen, 48 h
Details: 10 µM unless noted
Experimental: Cells are grown in 96 well plates and exposed to the test compound for 48 hours. Compounds are tested at a single concentration, which is 10^-5 M for most compounds. The reported endpoint is percent growth (GI% or GIPRCNT), where numbers from 0 - 100% represent growth inhibition, and numbers from -100% - 0 represent cell death. For example, a value of 40 represents 60% growth inhibition. A value of 0 means no net growth occurred over the course of the experiment. […]
This is part of a sample that, as a whole, favours compounds with a hit. Of some 83,000 tested, about 20% had one in any assay. Active and inactive are the calls of the source. How the source made its calls: active means growth percent below 10; inactive means the rest.
Choose the fitting class; nothing outside T (active), F (inactive) is accepted.

Q) Given `c1n[nH]cc1-c1nc2ccc3[nH]ncc3c2c2c1CCCC2` , state the outcome it received in this test.
A) F

Q) Given `O=C(CSc1nc2ccccc2c(=O)n1-c1ccccc1)Nc1ccc(-c2nc3ccc([N+](=O)[O-])cc3[nH]2)cc1` , state the outcome it received in this test.
A) F

Q) Given CCCC(=O)NC(c1cccnc1)c1cc(C(C)(C)C)c2cccnc2c1O (stereo not given) , state the outcome it received in this test.
A) F

Q) Given CC(Nc1c(C#N)cnc2ccc(-c3cnc(N)nc3)cc12)c1ccccc1 (stereo not given) , state the outcome it received in this test.
A) T

Q) Given `O=C1C(c2ccccc2)=C(N2CCc3ccccc32)OC1(Cl)Cl` , state the outcome it received in this test.
A) F
